# ASSAY_TARGET: Rho-associated protein kinase 2 (Homo sapiens)
# Sequence (O75116 whole entry): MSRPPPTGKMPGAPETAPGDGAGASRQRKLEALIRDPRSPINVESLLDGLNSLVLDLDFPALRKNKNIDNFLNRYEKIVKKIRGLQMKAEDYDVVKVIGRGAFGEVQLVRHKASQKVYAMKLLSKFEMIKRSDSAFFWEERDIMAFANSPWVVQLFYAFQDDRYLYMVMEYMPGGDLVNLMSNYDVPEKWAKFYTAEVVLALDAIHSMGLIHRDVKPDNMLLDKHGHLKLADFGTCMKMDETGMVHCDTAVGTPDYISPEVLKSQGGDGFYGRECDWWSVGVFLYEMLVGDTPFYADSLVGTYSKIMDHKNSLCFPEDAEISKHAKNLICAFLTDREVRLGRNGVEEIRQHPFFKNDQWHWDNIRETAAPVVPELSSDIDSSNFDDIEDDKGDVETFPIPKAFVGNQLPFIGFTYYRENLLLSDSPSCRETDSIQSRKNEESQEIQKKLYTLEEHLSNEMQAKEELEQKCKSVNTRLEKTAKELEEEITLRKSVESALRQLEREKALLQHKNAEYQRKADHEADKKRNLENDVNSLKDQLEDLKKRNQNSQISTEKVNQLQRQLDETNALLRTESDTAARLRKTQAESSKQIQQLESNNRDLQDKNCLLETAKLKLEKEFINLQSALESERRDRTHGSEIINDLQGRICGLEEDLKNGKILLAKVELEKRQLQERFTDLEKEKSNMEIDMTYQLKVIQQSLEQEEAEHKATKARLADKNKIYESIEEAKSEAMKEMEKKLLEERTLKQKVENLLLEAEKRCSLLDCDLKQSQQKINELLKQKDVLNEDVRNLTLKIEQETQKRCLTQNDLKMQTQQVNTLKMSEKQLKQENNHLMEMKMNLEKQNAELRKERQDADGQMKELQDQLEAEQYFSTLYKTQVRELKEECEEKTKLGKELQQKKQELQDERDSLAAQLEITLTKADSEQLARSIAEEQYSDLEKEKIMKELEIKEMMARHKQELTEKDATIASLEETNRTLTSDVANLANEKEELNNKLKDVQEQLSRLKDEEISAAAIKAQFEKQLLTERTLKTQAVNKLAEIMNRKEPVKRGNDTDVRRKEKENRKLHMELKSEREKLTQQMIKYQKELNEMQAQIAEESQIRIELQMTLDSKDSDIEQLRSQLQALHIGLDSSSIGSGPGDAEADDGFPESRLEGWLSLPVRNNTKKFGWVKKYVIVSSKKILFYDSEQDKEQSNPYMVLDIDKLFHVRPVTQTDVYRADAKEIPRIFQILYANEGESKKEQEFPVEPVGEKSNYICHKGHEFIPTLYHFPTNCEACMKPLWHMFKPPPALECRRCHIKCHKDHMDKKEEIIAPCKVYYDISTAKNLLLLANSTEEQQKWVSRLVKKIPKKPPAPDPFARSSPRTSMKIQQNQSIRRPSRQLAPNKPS
OBSERVED_PROPERTY: IC50

-- ask Please tell me: IC50 of O=C(CNC(=O)c1ccc(-c2cnccc2OCC2CCNCC2)cc1)Nc1ccccc1 , system Rho-associated protein kinase 2 (Homo sapiens)?
-- reply 360 nM

====

# ASSAY_TARGET: Maternal embryonic leucine zipper kinase (Homo sapiens, UniProt Q14680)
# Sequence (Q14680 whole entry): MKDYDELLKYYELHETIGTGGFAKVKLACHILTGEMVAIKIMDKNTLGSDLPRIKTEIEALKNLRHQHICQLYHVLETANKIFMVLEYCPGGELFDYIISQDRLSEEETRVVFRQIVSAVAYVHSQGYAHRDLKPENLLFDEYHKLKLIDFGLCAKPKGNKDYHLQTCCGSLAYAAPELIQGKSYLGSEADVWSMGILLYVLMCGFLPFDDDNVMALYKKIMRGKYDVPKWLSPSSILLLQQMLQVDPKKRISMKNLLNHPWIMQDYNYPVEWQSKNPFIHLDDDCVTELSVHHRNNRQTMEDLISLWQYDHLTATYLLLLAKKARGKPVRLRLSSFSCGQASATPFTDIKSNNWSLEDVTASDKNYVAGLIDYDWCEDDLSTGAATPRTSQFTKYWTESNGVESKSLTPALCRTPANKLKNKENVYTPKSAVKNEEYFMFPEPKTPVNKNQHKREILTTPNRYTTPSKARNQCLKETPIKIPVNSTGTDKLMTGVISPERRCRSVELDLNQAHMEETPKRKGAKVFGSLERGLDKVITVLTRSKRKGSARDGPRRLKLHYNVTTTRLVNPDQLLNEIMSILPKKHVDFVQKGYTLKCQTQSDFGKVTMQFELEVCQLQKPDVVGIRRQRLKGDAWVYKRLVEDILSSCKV
OBSERVED_PROPERTY: IC50 (nM)
Write it as a number; the unit nM goes unstated.

Some entries whose results are on file:
| SMILES_NOTATION | IC50 [nM] |
| --- | --- |
| CNc1ncc(-c2ccc(C(=O)NCc3nc4ccc(OC)cc4[nH]3)cc2)c(OCC2CCNCC2)n1 | 1.5 |
| COc1ccc2nc(CNC(=O)c3ccc(-c4cnc(Nc5ccccc5)nc4OCC4CCNCC4)cc3)[nH]c2c1 | 0.15 |
| O=C(NCc1nc2ccccc2[nH]1)c1ccc(-c2cnc(Nc3ccccc3)nc2OCC2CCNCC2)cc1 | 1.1 |
| O=C(NCc1nc2ccccc2[nH]1)c1ccc(-c2cnccc2OCC2CCNCC2)cc1 | 12 |

-- ask Need IC50, item COc1ccc2nc(CNC(=O)c3ccc(-c4cnccc4OCC4CCNCC4)cc3)[nH]c2c1
-- reply 1.5
